Molecular target: T1, HLA-A*02:01 class I complex (conditional p*HLA*02:01, biotinylated heavy chain with beta2-microglobulin) (human, biotinylated heavy chain)
T1 construct: UV-labile peptide p* is cleaved and exchanged for the test peptide; also called HLA 2.1
Experiment: UV peptide exchange, HLA class I ELISA, % of Pos peptide;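 also: Streptavidin-captured HLA complexes after exchange detected via HRP anti-human B2M antibody, absorbance read, colour scales with intact complex, normalized to exchange control peptide as 100%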
I'd be grateful if you could share measured Exch II (%) for these entries.
Give bare numbers, in %.

# example entries with known answers
## Task Please give the measured Exch II (%) for this binder: YMDSGIHFL (also called M035) [CTNNB1.S37F10 mimic peptide YMDSGIHFL]
## Result 108

## Task Please give the measured Exch II (%) for this binder: KMYPVQLWL (also called M133) [TP53_C141Y8 mimic peptide KMYPVQLWL]
## Result 103

Dear colleague, could you send me Exch II (%) for each of the items below? Thanks.
1. YQGSYGFLI (also called M201) [TP53_R110L3 mimic peptide YQGSYGFLI]
2. AMNNMFCQV (also called M162) [TP53_K132N6 mimic peptide AMNNMFCQV]

## Result
1. 10.8
2. 70.8

Dear colleague, could you send me Exch II (%) for each of the items below? Thanks.
1. GLKDLLNPV (also called M081) [PIK3CA_E453K5 mimic peptide GLKDLLNPV]
2. ALNNMFCQV (also called M161) [TP53_K132N5 mimic peptide ALNNMFCQV]
3. ILNREIDFA (also called M090) [PIK3CA.G118D mutant peptide ILNREIDFA]
4. LLVVGACGV (also called M061) [KRAS_G12C2 mimic peptide LLVVGACGV]
5. NMDEYVHNL (also called M113) [SF3B1_R625H9 mimic peptide NMDEYVHNL]
6. VMSDAISAV (also called M122; SOX17_S40313) [SOX17_S403I3 mimic peptide VMSDAISAV]
7. NLDEYVHNI (also called M116) [SF3B1.R625H14 mimic peptide NLDEYVHNI]
8. VLPCEPPEV (also called M231) [TP53_Y220C2 mimic peptide VLPCEPPEV]

## Result
1. 76.3
2. 68.8
3. 47.8
4. 33.1
5. 54.3
6. 87.9
7. 69
8. 73.7
